- EXPERIMENTAL SYSTEM: Human GPA33 on GPA33+ colorectal cancer cell lines (Colo 205, LS 174T, SW 1222) (human) (UniProt Q99795)
- Sequence (Q99795 22-319 limits assumed): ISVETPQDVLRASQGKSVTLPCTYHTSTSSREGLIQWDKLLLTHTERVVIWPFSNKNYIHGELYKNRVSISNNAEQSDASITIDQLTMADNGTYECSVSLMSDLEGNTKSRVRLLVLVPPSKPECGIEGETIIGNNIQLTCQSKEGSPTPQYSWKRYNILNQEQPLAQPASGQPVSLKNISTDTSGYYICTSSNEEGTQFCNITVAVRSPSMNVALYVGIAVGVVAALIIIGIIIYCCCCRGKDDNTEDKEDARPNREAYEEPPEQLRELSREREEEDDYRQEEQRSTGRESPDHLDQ
- PROTOCOL DESCRIPTION: cell binding to SW1222 Luc cells; IgG format
EXPERIMENTAL READOUT: EC50
Put down the number, then write its unit next to it.

| BINDER | EC50 |
| --- | --- |
| G3A_VK1+VH3 (antibody, IgG1, V domains shown, part only, IgG1 constant regions) VH: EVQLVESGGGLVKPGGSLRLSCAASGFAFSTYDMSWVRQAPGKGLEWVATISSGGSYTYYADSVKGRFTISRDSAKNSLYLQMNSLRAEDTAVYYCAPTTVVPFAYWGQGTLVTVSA VL: DIQMTQSPSSLSASVGDRVTITCKASQNVRTVVAWYQQKPGKAPKRLIYLASNRHTGVPSRFSGSGSGTEFTLTISNLQPEDFATYYCLQHWSYPLTFGSGTKLEVK | 1.32 µg/mL |
| G3A_VK2+VH3 (antibody, IgG1, V domains shown, part only, IgG1 constant regions not given) VH: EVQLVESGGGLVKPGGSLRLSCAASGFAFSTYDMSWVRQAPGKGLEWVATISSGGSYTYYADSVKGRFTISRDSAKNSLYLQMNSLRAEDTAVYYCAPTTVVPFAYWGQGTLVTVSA VL: DIQMTQSPSSLSTSVGDRVTITCKASQNVRTVVAWYQQKPGKAPKTLIYLASSLQSGVPSRFSGSGSGTEFTLTISNVQPEDFADYFCLQHWSYPLTFGSGTKLEVK | 1.89 µg/mL |
| G3A_VK1+VH2 (antibody, IgG1, V domains shown, part only, IgG1 constant regions) VH: EVQLVESGGGLVKPGGSLRLSCAASGFAFSTYDMSWVRQAPGKGLEWVATISSGGSYTYYLDSVKGRFTISRDSAKNSLYLQMNSLRAEDTAVYYCAPTTVVPFAYWGQGTLVTVSA VL: DIQMTQSPSSLSASVGDRVTITCKASQNVRTVVAWYQQKPGKAPKRLIYLASNRHTGVPSRFSGSGSGTEFTLTISNLQPEDFATYYCLQHWSYPLTFGSGTKLEVK | 0.991 µg/mL |

# next binder below
### Prompt Need EC50, item G3A_VK1+VH1 (antibody, IgG1, V domains shown, part only, IgG1 constant regions not given) VH: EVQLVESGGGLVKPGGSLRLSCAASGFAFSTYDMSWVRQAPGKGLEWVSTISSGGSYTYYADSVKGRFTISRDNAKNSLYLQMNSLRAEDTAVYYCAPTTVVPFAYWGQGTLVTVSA VL: DIQMTQSPSSLSASVGDRVTITCKASQNVRTVVAWYQQKPGKAPKRLIYLASNRHTGVPSRFSGSGSGTEFTLTISNLQPEDFATYYCLQHWSYPLTFGSGTKLEVK
### Response 1.51 µg/mL
